# study target: Firefly luciferase (Photinus pyralis, UniProt P08659)
# Sequence (P08659 whole entry): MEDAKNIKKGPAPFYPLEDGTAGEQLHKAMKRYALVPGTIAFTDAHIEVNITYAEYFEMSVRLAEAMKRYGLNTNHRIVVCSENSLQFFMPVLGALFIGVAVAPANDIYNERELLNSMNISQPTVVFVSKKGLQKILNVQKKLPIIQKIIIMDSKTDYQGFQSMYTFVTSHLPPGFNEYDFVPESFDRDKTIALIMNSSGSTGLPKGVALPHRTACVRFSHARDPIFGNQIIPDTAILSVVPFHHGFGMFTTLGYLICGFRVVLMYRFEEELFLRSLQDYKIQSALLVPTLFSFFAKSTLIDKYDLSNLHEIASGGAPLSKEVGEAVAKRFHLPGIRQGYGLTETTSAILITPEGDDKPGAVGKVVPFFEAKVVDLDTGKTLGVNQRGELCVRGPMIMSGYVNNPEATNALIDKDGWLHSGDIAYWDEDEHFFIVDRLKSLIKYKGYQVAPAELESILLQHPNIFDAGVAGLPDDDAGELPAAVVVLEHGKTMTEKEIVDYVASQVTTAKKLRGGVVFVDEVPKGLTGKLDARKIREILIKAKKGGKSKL
measurement label: pIC50
Note: pIC50 values are expressed as the negative base-10 logarithm of concentration in M.

pIC50 on Firefly luciferase (Photinus pyralis, UniProt P08659) for CCC(CC)c1cc([C@H]2CN3CC[C@H]2C[C@@H]3CNS(=O)(=O)c2cccs2)nc(-c2ccncc2)n1 [JS-3] is 4.60

----------
Entries and their measured Imax, HEK-hNpr1-cGMP-sensor cells follow.
# study target: hNpr1 (Homo sapiens, UniProt P16066)
# assay comment: qHTS GloSensor cGMP assay, hNppa-stimulated HEK-hNpr1-cGMP-sensor cells (1536-well)
# Type: cell-based
# assay setup: qHTS follow-up; hNppa-stimulated; −100% = 38.3 μM A-71915
Quick reminder: number only, in %, skip the unit.

// below: answered molecules
| molecule | output unit | Imax, HEK-hNpr1-cGMP-sensor cells |
| --- | --- | --- |
| Cc1nn2c(c1-c1ccccc1OCc1ccccc1)N(C(=O)Cc1ccc3c(c1)OCO3)CCC2 [JS-8] | % | −122 |
| Cc1noc(C)c1-c1cc(-c2ccccc2Oc2ccccc2)cn2cncc12 [JS-5] | % | −127 |

Kindly review the next molecule as well.
Imax, HEK-hNpr1-cGMP-sensor cells reading for O=C(Cc1ccc(Cl)cc1)N1Cc2ccccc2CC2(CCCN2CC2CCNC2)C1 (centres unmarked) [JS-2] : −102

----------
Entries and their measured Ki follow.
# study target: hNpr1 (Homo sapiens)
# assay comment: GloSensor assay in 96-well format, HEK-hNpr1-cGMP-sensor cells
# Type: cell-based
# assay setup: calculated with Cheng-Prusoff equation from Table 3; read-out: Ki hNpr1 GloSensor™ [μM] (mean ± SEM)
Give your result as the value with the unit written after it.

// below: answered compounds
| compound | Ki |
| --- | --- |
| COc1cc(CN2CCC(C)(NC(C)=O)CC2)cc(-c2ccncc2)c1 [JS-4] | 0.18 µM |
| Cc1nn2c(c1-c1ccccc1OCc1ccccc1)N(C(=O)Cc1ccccn1)CCC2 [JS-9] | 0.49 µM |
| Cc1nn2c(c1-c1ccccc1OCc1ccccc1)N(C(=O)Cc1ccc3c(c1)OCO3)CCC2 [JS-8] | 0.2 µM |
| Cc1nn2c(c1-c1ccccc1Oc1ccccc1)N(C(=O)Cc1ccc3c(c1)OCO3)CCC2 [JS-10] | 1.07 µM |

Kindly review the next compound as well.
Ki reading for Cc1cc(CNC(=O)c2ccc3c(c2)n(CC2CC2)c(=O)n3C2CCCCC2)on1 [JS-11] : 0.3 µM

----------
# study target: hNpr1 (Homo sapiens)
# assay comment: Cell-free hNpr1 membrane cyclase assay (cGMP ELISA)
# Format: biochemical
# assay setup: IC50 [μM] (mean ± SEM), membrane cyclase assay, membranes of HEK-hNpr1-cGMP-sensor cells, hNppa-stimulated
measurement label: IC50 (µM)
Quick reminder: number only, in µM, skip the unit.

IC50 reading for "COc1ccc(C2(C(=O)N3CCC4(CC3)c3nccn3-c3ccccc3CN4C)CC2)cc1" : 0.7

----------
Entries and their measured IC50 follow.
# study target: hNpr1 (Homo sapiens)
# assay comment: qHTS GloSensor cGMP assay, hNppa-stimulated HEK-hNpr1-cGMP-sensor cells (1536-well)
# Format: cell-based
# assay setup: Table 1; cell-based GloSensor assay of hNpr1 inhibition; read-out: IC50 GloSensor™ assay
Quick reminder: number only, in µM, skip the unit.

| compound | value observed |
| --- | --- |
| N#Cc1ccccc1CN1CCCC(C(=O)NCc2ccccc2)CCNC(=O)CC1 (centres unmarked) | 3.98 |
| Cc1cc(CNC(=O)c2ccc3c(c2)n(CC2CC2)c(=O)n3C2CCCCC2)on1 | 5.62 |
| O=C(NCc1cccnc1)c1cnc2[nH]nc(-c3ccccc3)c2n1 | 22.4 |
| CN(Cc1ccccc1)C(=O)c1cn2ccnc(-c3ccccc3)c2n1 | 6.31 |

IC50 on hNpr1 (Homo sapiens) for "COc1ccccc1-c1n[nH]c2ncc(C(=O)NCc3cccnc3)nc12" is 11.2

----------
# study target: hNpr1 (Homo sapiens)
# assay comment: Cell-free hNpr1 membrane cyclase assay (cGMP ELISA)
# Format: biochemical
# assay setup: membranes of HEK-hNpr1-cGMP-sensor cells, hNppa-stimulated
measurement label: Imax [%] (mean ± SEM), membrane cyclase assay
Give your result as the value with the unit written after it.

// below: answered compounds
| compound | study target | value observed |
| --- | --- | --- |
| Cc1nn2c(c1-c1ccccc1Oc1ccccc1)N(C(=O)Cc1ccc3c(c1)OCO3)CCC2 [JS-10] | hNpr1 (Homo sapiens) | −95.2 ± 3.3% |
| Cc1nn2c(c1-c1ccccc1OCc1ccccc1)N(C(=O)Cc1ccccn1)CCC2 [JS-9] | hNpr1 (Homo sapiens) | −95.3 ± 4.5% |

Imax [%] (mean ± SEM), membrane cyclase assay reading for Cc1noc(C)c1-c1cc(-c2ccccc2Oc2ccccc2)cn2cncc12 [JS-5] : −99.8 ± 0.1%

----------
# study target: hNpr1 (Homo sapiens)
# Sequence (P16066 33-1061): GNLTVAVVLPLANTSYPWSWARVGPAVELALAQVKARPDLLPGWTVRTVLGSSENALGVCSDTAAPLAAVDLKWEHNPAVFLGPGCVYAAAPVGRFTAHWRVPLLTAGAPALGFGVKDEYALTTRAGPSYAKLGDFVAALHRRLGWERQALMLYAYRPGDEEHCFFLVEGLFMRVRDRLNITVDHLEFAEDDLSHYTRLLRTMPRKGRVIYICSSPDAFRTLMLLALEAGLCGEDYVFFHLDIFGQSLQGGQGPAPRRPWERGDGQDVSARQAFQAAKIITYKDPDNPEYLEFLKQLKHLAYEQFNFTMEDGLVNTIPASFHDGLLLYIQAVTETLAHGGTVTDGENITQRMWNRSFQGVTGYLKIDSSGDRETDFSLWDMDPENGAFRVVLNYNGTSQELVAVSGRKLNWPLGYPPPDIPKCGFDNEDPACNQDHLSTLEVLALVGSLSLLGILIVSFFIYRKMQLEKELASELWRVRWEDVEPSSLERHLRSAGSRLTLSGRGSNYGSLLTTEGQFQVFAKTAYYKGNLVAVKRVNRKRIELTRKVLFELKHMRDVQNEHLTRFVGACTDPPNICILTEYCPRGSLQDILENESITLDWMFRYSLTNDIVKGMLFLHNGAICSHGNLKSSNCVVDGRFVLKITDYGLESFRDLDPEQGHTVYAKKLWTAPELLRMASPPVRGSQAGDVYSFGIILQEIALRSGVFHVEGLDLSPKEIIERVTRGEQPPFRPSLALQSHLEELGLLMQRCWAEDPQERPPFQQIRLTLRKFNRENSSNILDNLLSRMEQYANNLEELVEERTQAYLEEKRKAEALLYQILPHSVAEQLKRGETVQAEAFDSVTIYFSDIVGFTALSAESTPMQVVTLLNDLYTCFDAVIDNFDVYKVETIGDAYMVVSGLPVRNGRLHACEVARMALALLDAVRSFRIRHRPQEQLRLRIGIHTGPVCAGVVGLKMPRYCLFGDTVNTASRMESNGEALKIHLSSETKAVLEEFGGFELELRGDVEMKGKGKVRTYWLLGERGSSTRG
# assay comment: Cell-free hNpr1 membrane cyclase assay (cGMP ELISA)
# Assay type: biochemical
measurement label: pKi
Note: pKi values are expressed as the negative base-10 logarithm of concentration in M.

pKi reading for "COc1ccc(C2(C(=O)N3CCC4(CC3)c3nccn3-c3ccccc3CN4C)CC2)cc1" : 7.00

----------
# study target: hNpr2 (Homo sapiens)
# Sequence (P20594 23-1047): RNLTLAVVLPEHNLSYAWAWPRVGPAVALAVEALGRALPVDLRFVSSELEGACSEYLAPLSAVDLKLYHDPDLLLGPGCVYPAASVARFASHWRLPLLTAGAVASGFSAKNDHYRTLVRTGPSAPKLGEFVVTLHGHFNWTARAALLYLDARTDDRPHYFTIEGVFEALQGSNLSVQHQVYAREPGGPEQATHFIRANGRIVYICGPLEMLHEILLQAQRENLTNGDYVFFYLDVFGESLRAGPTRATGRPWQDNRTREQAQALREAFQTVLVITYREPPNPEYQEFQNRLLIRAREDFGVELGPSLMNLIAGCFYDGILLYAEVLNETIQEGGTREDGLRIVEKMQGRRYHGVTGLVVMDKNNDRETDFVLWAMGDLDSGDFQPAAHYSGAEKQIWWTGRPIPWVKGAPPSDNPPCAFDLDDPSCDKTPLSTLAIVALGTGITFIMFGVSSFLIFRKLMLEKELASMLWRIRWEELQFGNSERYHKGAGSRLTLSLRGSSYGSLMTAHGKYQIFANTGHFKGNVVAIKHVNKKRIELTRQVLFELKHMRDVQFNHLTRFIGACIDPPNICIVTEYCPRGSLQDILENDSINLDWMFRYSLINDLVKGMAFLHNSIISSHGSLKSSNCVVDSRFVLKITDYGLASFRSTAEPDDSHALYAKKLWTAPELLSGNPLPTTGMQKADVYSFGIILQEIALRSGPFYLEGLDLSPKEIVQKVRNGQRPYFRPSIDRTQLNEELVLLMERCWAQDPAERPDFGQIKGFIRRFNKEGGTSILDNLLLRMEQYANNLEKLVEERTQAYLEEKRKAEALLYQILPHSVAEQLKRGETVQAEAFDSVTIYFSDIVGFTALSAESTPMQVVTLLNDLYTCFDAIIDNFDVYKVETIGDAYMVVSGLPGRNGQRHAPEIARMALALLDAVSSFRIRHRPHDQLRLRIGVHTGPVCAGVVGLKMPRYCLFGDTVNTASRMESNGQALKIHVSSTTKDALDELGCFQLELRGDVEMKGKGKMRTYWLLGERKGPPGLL
# assay comment: Counter-screen, Nppc-stimulated HEK-hNpr2-cGMP-sensor cells
# Assay type: cell-based
# assay setup: read-out: Imax, HEK-hNpr2-cGMP-sensor cells; 1 nM Nppc-stimulated; −100% = no agonist
measurement label: Imax (%)
Quick reminder: number only, in %, skip the unit.

// below: answered compounds
| smiles text | Imax (%) |
| --- | --- |
| Cc1nn2c(c1-c1ccccc1OCc1ccccc1)N(C(=O)Cc1ccc3c(c1)OCO3)CCC2 | -127 |
| Cc1nn2c(c1-c1ccccc1Oc1ccccc1)N(C(=O)Cc1ccc3c(c1)OCO3)CCC2 | -86 |
| COc1cc(CN2CCC(C)(NC(C)=O)CC2)cc(-c2ccncc2)c1 | -100 |
| Cc1nn2c(c1-c1ccccc1OCc1ccccc1)N(C(=O)Cc1ccccn1)CCC2 | -102 |

Kindly review the next compound as well.
Imax reading for "COc1ccccc1-c1n[nH]c2ncc(C(=O)NCc3cccnc3)nc12" : -102

----------
# study target: hNpr1 (Homo sapiens)
# assay comment: GloSensor assay in 96-well format, HEK-hNpr1-cGMP-sensor cells
# Type: cell-based
# assay setup: calculated with Cheng-Prusoff equation from Table 3; read-out: Ki hNpr1 GloSensor™ [μM] (mean ± SEM)
measurement label: Ki (µM)
Quick reminder: number only, in µM, skip the unit.

// below: answered molecules
| molecule | measurement label | value observed |
| --- | --- | --- |
| COc1ccc(C2(C(=O)N3CCC4(CC3)c3nccn3-c3ccccc3CN4C)CC2)cc1 [JS-12] | Ki | 0.21 |
| CCC(CC)c1cc([C@H]2CN3CC[C@H]2C[C@@H]3CNS(=O)(=O)c2cccs2)nc(-c2ccncc2)n1 [JS-3] | Ki | 0.5 |
| COc1ccccc1-c1n[nH]c2ncc(C(=O)NCc3cccnc3)nc12 [JS-6] | Ki | 0.31 |
| N#Cc1ccccc1CN1CCCC(C(=O)NCc2ccccc2)CCNC(=O)CC1 (stereo not shown) [JS-13] | Ki | 0.18 |
| O=C(NCc1cccnc1)c1cnc2[nH]nc(-c3ccccc3)c2n1 [JS-7] | Ki | 0.19 |

Ki reading for CN(Cc1ccccc1)C(=O)c1cn2ccnc(-c3ccccc3)c2n1 [JS-14] : 0.5

Ki reading for Cc1noc(C)c1-c1cc(-c2ccccc2Oc2ccccc2)cn2cncc12 [JS-5] : 1.18
